Assay: inhibition of endothelial tube formation, primary screen, imaging, VEGF stimulated, CD31 staining, tube area, NPC library (AID 1117340)
Details: VEGF-stimulated ADSC/ECFC co-culture, at 10 µM
Active and inactive are the calls of the source.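 The calls were made as follows: active = compound that reduces growth-factor-driven endothelial tube area in a mixed cell culture, no cutoff stated; inactive = the rest.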
Hi there, use one of these labels in your reply, thanks! 1 (active), -1 (inactive)

Asked: Can you look up the reported call for "C[C@]12CCC(=O)C=C1CC[C@@H]1[C@@H]2[C@@H](O)C[C@@]2(C)[C@H]1CC[C@]2(O)C(=O)COP(=O)(O)O" for me?
Given back: -1

Asked: Per the records of this test, what outcome belongs to "O=C(O)CCC(=O)c1ccc(-c2ccccc2)cc1" ?
Given back: -1

Asked: Dear all, I need the recorded test outcome for C[n+]1c2cc(N)ccc2cc2ccc(N)cc21 (tested in a mixture with another compound) , thank you.
Given back: -1

Asked: Tell me the assay call for "Cc1nc2sccn2c(=O)c1CCN1CCC(=C(c2ccc(F)cc2)c2ccc(F)cc2)CC1" please.
Given back: -1

Asked: How did this test come out for CCCCN(CCCC)CCC(O)c1cc2c(Cl)cc(Cl)cc2c2cc(C(F)(F)F)ccc12 (stereo unspecified) ?
Given back: 1

Asked: What did the test return for CCOC(=O)OC(C)OC(=O)[C@@H]1N2C(=O)[C@@H](NC(=O)[C@H](N)c3ccccc3)[C@H]2SC1(C)C (stereo partly specified) ?
Given back: -1

Asked: In this assay, the call recorded for "Oc1cc(O)c2c(c1)O[C@H](c1ccc(O)c(O)c1)[C@H](O)C2" was what?
Given back: -1

Asked: Query: recorded result category for "Cc1cccc(N(C)C(=S)Oc2ccc3ccccc3c2)c1" in this test
Given back: -1

Asked: // outcome(item) with item = "O=C(OCc1ccccc1)c1ccccc1"
Given back: -1

Asked: Tell me the recorded outcome of this test for "C=C[C@@]1(C)CC(=O)[C@]2(O)[C@@]3(C)[C@@H](O)CCC(C)(C)[C@@H]3[C@H](O)[C@H](OC(C)=O)[C@@]2(C)O1" .
Given back: -1

Asked: Lab log entry: "CCCCOC(=O)c1ccc(N)cc1" — outcome as called in the assay?
Given back: -1

Asked: So what was the verdict on "COCCCC/C(=N\OCCN)c1ccc(C(F)(F)F)cc1" in this test?
Given back: -1

Asked: Please state the recorded outcome for this compound: "Cc1cnc(C(=O)O)c[n+]1[O-]"
Given back: -1

Asked: Which result was noted for this compound in the test: "NC(=NCCCCCCN=C(N)/N=C(\N)Nc1ccc(Cl)cc1)/N=C(\N)Nc1ccc(Cl)cc1"
Given back: 1

Asked: # fetch the recorded call for COc1cc2nc(N3CCN(C(=O)C4COc5ccccc5O4)CC3)nc(N)c2cc1OC (stereo unspecified) here
Given back: 1

Asked: Status in this test for O=C(OCC(O)CO)c1ccccc1Nc1ccnc2cc(Cl)ccc12 (stereo unspecified) ?
Given back: -1

Asked: Could you please tell me the result logged for "Fc1ccc(C(c2ccc(F)cc2)N2CCN(C/C=C/c3ccccc3)CC2)cc1" in this assay?
Given back: -1

Asked: // param item: "Cc1[nH]c(C)c(Cl)c(=O)c1Cl" ; yields the recorded call
Given back: -1

Asked: For "CN1CCC[C@@H]1CCO[C@](C)(c1ccccc1)c1ccc(Cl)cc1" , which call appears in the assay record?
Given back: 1

Asked: Recorded call for C=CCSCC1Nc2cc(Cl)c(S(N)(=O)=O)cc2S(=O)(=O)N1 (stereo unspecified) ?
Given back: -1

Asked: Just curious, what result did "CCN(CC)CCOc1ccc(/C(=C(\Cl)c2ccccc2)c2ccccc2)cc1" get here?
Given back: 1
